Values compiled from patent US9409952B2.

- assay.procedure: Mouse PK test of peptides (intravenous and oral administration)
- measurement.conditions: male, C57BL/6J, in vivo, po, 20 mg/kg
Positions of bridges follow the written chain, without caps; N, C: chain ends. Non-standard residues stand in square brackets, D forms with d. Residues, ends and D or L forms follow the SMILES beside them. *: point of attachment. NMeF = CN[C@@H](Cc1ccccc1)C(=O)O; NMeL = CN[C@@H](CC(C)C)C(=O)O; NMeA = CN[C@@H](C)C(=O)O; Piperidide = C1CCN(*)CC1; NPrGly = CCCNCC(=O)O; tBu = CC(C)(C)*
metric: AUC (ng·h/mL)
Response body: numeric value in ng·h/mL, unit text excluded.

Qu. Form field: reported AUC of CCCN1CC(=O)N(C)[C@@H](CC(C)C)C(=O)N[C@@H](COC(C)(C)C)C(=O)N(C)[C@@H](CC(C)C)C(=O)N[C@H](C(=O)N2CCCCC2)CC(=O)N[C@H](C)C(=O)N(C)[C@@H](C)C(=O)N(C)[C@@H](Cc2ccccc2)C(=O)N(C)[C@@H](CC(C)C)C(=O)N[C@@H]([C@@H](C)O)C1=O [DP-547] ([dA][NMeA][NMeF][NMeL]T[NPrGly][NMeL]S(tBu)[NMeL]D-Piperidide; lactam N-10)
Ans. 4510
